assaySystem: Glucose-dependent insulinotropic receptor (Homo sapiens)
testSummary: Agonist activity at GPR119 (unknown origin) assessed as increase in cAMP level at 10 uM by cAMP HTRF assay relative to oleoylethanolamide
Format: functional
valueType: Emax (%)

// below: answered compounds
- testSmiles: "COc1ccc(Br)cc1OCc1csc(C2=CCN(C(=O)OC(C)(C)C)CC2)n1"
  Emax / %: -14.2
- testSmiles: "CCc1cnc(N2CC=C(c3nc(COc4ccc(-n5cnnn5)cc4)cs3)CC2)nc1"
  Emax / %: 110
- testSmiles: "CC(C)(C)OC(=O)N1CC=C(c2nc(CNc3ccc(Cl)c(I)c3)cs2)CC1"
  Emax / %: 5.25

I. CC(C)(C)OC(=O)N1CC=C(c2nc(COc3ccc(-n4cnnn4)cc3F)cs2)CC1
II. CC(C)(C)OC(=O)N1CC=C(c2nc(COc3cccc(-n4cnnn4)c3)cs2)CC1
Q: I would appreciate it if you could say which entry, I or II , has the lower Emax value. Pick one and reply with its label.
A: II
(II: -2.17%, I: 105%)
